tested on: Escherichia coli; settings: Concentration 20 uM; ASSAY_TEST Inhibition of Bacterial Growth; detection method Absorption (OD600); MEDIA CAMHB; plate type 384well; NBS; CORNING #3640; time 18 hr
Description: Antibacterial activity against Escherichia coli ATCC 25922 (CO-ADD:GN_001); MIC in CAMBH media using NBS plates, by OD(600)
Entries with a potency or affinity are not part of this list.
endpoint: Inhibition (%)
# output: bare number, implied unit %

The molecule identified as COc1ccc(-c2cncc3ccc(C(=O)NCCCn4ccnc4)nc23)cc1 registered its Inhibition at 12.75

Data point: CN1CCN(S(=O)(=O)c2ccc(-c3ccc4c(Nc5ccc6nn[nH]c6c5)ccnc4c3)cc2)CC1 ; Inhibition = -0.24

molecule Cc1nc(-c2ccccn2)nc(NCCc2ccc(S(C)(=O)=O)cc2)c1Cl , Inhibition observed: -2.55

Entry CN1CCC(c2cc(-c3ccncc3)c(-c3ccc(F)cc3)[nH]2)CC1 , Inhibition reported as -2.15

Field Inhibition (entry O=C1N(Cc2cc3ccccc3s2)CC2CN(Cc3ccccc3)CCN12 (stereo not given) ) reads -5.97
